# procedure_text: Stability in rat plasma assessed as compound remaining measured after 10 mins
# Type: ADME, cell-free
# experimental_parameters: read-out: Stability
For each record, write down the corresponding remaining at 10 min.
Please report the result as a number followed by the unit.

Task item: Quick one: give measured remaining at 10 min for CN(C)C1CCN(C(=O)c2ccc(N3N=C(c4ccccc4)/C(=N/Nc4ccccc4)C3=O)cc2)CC1
Reply: 99.4%

Task item: Quick one: give measured remaining at 10 min for O=C1/C(=N\Nc2nccs2)C(c2ccccc2)=NN1c1nc(-c2ccccc2)cs1
Reply: 101%

Task item: Quick one: give measured remaining at 10 min for CCOC(=O)[C@H](CCc1ccccc1)N[C@@H](C)C(=O)N1CCC[C@H]1C(=O)O.O=C(O)/C=C\C(=O)O [ENALAPRIL MALEATE]
Reply: 58.9%
